experiment: Lipophilicity, log P of the compound
Type: physicochemical
assay-context: octanol/water
recorded-endpoint: logP

Past entries and their recorded results:
compound: CC(C)CCOC(=O)/C=C/c1ccc(O)c(O)c1
logP: 3.21

compound: COC(=O)/C=C/c1ccc(O)c(O)c1 [METHYLCAFFEATE]
logP: 1.56

compound: CC(=O)Nc1ccc(O)cc1
logP: 1.43

compound: CC(C)COC(=O)/C=C/c1ccc(O)c(O)c1
logP: 2.68

compound: O=C(/C=C/c1ccc(O)c(O)c1)OCCc1ccccc1
logP: 3.36

compound: CC(C)OC(=O)/C=C/c1ccc(O)c(O)c1
logP: 2.3

Could you report logP for every entry in the following list?
1. CCCCCCCCCCCCOC(=O)/C=C/c1ccc(O)c(O)c1
2. CCCCOC(=O)/C=C/c1ccc(O)c(O)c1 [BUTYL CAFFEATE]
3. CCOC(=O)/C=C/c1ccc(O)c(O)c1 [ETHYL CAFFEATE]
4. CCCCCCCCOC(=O)/C=C/c1ccc(O)c(O)c1
5. O=C(/C=C/c1ccc(O)c(O)c1)OCc1ccccc1 [BENZYL CAFFEATE]

[7.04, 2.99, 1.93, 5.02, 3.15]

// logP lookup, key: CC(=O)Oc1ccccc1C(=O)O
0.68
